Target: HLA B*0801 (Homo sapiens, UniProt P01889, A93T/A95T/D138N/E176V/E187T/K202T/Q94N/R180D/S35A/V36M/Y33D/Y91F)
Test: biochemical
Format: binding
Each entry gets condition not met if its Normalized average relative binding affinity(ARB) stays under 0.06, and condition met if its Normalized average relative binding affinity(ARB) is 0.06 or above.

Lookup: Does the sequence XXXXXXXWX [3064.0159] have recorded Normalized average relative binding affinity(ARB) that is 0.06 or more?
Found: condition met

Lookup: Next: XXXXXXHXX [3064.0127]
Found: condition met

Lookup: Next: XXXXXAXXX [3064.0101]
Found: condition not met

Lookup: Next: XXXXLXXXX [3064.0090]
Found: condition met

Lookup: Next: XXXXXXXDX [3064.0143]
Found: condition met

Lookup: Next: XXXXXXFXX [3064.0125]
Found: condition met

Lookup: Next: XXXXYXXXX [3064.0100]
Found: condition met

Lookup: Next: XXXXXXXAX [3064.0141]
Found: condition met

Lookup: Next: XXXXNXXXX [3064.0092]
Found: condition not met

Lookup: Next: XXXXXDXXX [3064.0103]
Found: condition not met

Lookup: Next: XXXXXRXXX [3064.0115]
Found: condition met

Lookup: Next: XXXXXXSXX [3064.0136]
Found: condition met

Lookup: Next: XXXHXXXXX [3064.0067]
Found: condition met

Lookup: Next: XXXXXXXNX [3064.0152]
Found: condition met

Lookup: Next: XXXGXXXXX [3064.0066]
Found: condition met

Lookup: Next: XXXMXXXXX [3064.0071]
Found: condition met
